- measurementDescription: gst-4 reporter inhibition in live C. elegans – whole organism, uHTS, GFP/RFP fluorescence ratio, strain VP596, SKN-1 inhibitor project, primary screen (AID 624304)
- measurementParameters: C. elegans VP596 Pgst-4::GFP/RFP ratio, acrylamide-induced, 24 h; at 21.8 µM
In all, about 360,000 compounds went through this assay and about 1,800 (0.5%) were called active.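 The calls were made as follows: active = interference check ratio from 0.5 to 1.5 plus GFP to RFP signal ratio inhibition reaching or exceeding a fixed threshold (cut at about 30% in these data, passing the limit was not always enough); inactive = the rest.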 What follows is part of a selection rich in actives, with near analogues and random picks from the rest.
Hi! Could you answer with just one of these? active, inactive

Solved cases (8 shown):
Q) What call does the record list for COc1cccc(NC(=O)CC(c2ccc(OC(C)C)cc2)c2ccccc2OC)c1 (centres undefined) ?
A) inactive

Q) GET /call?item= `Cc1nc2c(-c3ccc(F)cc3)c(C)nn2c(C)c1CCC(=O)N1CCN(c2ccccn2)CC1` returns the recorded outcome of this test.
A) inactive

Q) Give the logged outcome of this assay for the following molecule: Cc1ccc(NC(=O)Cc2nc(COC(=O)C(C)NS(=O)(=O)c3ccc(C)cc3)cs2)cc1 (centres undefined)
A) inactive

Q) Outcome? `COc1ncnc2c1N=C1CC(C)(C)CC(N)=C1S2`
A) active

Q) Which result was noted for this molecule in the test: `Cc1cccc(C(=O)N[C@H](C(=O)NCc2cccs2)C(C)C)c1`
A) inactive

Q) I'd appreciate the recorded outcome for COC(=O)CCCC1=CC2=CC(=O)C(C)(OC(=O)c3cccs3)C(=O)C2=CN1CC(C)C (centres undefined) from this test.
A) active

Q) // return assay outcome for COC(=O)CCCC1=CC2=C(c3ccccc3)C(=O)C(C)(OC(=O)C3CCCC3)C(=O)C2=CN1c1ccc(OC)cc1 (centres undefined)
A) inactive

Q) Dear colleague, could you share the recorded outcome for `Cc1nc2ncnn2c(C)c1CCC(=O)N1CCN(C(=O)c2ccco2)CC1` when you have a moment?
A) inactive

Turning now to a further record.
Q) Identify the outcome logged in this assay for the molecule shown: COc1ccc(CC(NC(C)=O)C(=O)NC2CCN(C(=O)Nc3ccc(C#N)cc3)CC2)cc1OC (centres undefined)
A) inactive

###

- measurementDescription: gst-4 reporter inhibition in live C. elegans – whole organism, uHTS, GFP/RFP fluorescence ratio, strain VP596, SKN-1 inhibitor project, primary screen (AID 624304)
- measurementParameters: C. elegans VP596 Pgst-4::GFP/RFP ratio, acrylamide-induced, 24 h; at 21.8 µM; active compounds read high
About 1,800 (0.5%) of roughly 360,000 compounds were called active. The full list was thinned out, with actives kept by preference.
readout: inhibition (%)
Write the answer as a number in %, unit excluded.

Worked examples follow.
Q) Please report the recorded inhibition for `O=C(O)CCCN1C(=O)c2ccccc2Sc2ncccc21` .
A) 45.5

Q) Can you look up the measured inhibition of `COCCNC(=O)CCCN1C(=O)c2ccccc2Sc2ncccc21` for me?
A) 4.78

Q) inhibition lookup needed for `C=CCNc1nc(Nc2ccc(Cl)cc2)nc(OC)n1` , thanks.
A) 13.7

Q) Give the measured inhibition of `CCc1c(SCCC(=O)O)nc2ccccc2c1C` .
A) -7.29

Q) Which inhibition is reported for this compound? `CC[n+]1c(C)n(-c2ccccc2)c2ccc(NC(C)=O)cc21`
A) -12.4

From here, focus on the item given below.
Q) # input compound: `COCCNC(=O)CN(C(=O)CCC(=O)Nc1cc(C)on1)c1ccc(C)cc1C` ; wanted: its inhibition
A) -14.7
